Consider the following compounds; for each one, report its inhibition at 10 µM.
Tested on: LPS-induced microglia activation
Experiment: Image-based assay of LPS-induced microglia activation (HTS and dose response)
Assay type: cell-based, rat
Conditions: Rattus norvegicus, Microglia, read-out: LPS % inhibition
Answers are plain numbers, in %.

# querySmiles, targetDesc, inhibition at 10 µM, %
measured = [
    ("CN1CCN(C2=Nc3cc(Cl)ccc3Nc3ccccc32)CC1", "LPS-induced microglia activation", 9),
    ("O=C(O)CC(O)(CC(=O)O)C(=O)O", "LPS-induced microglia activation", -6),
    ("CC(=O)Nc1ccc(S(=O)(=O)c2ccc(NC(C)=O)cc2)cc1", "LPS-induced microglia activation", 4),
]

// moving on: another record for inhibition at 10 µM
Query: Annotate the compound "O=C(O)c1ccccc1" with its measured inhibition at 10 µM.
Result: 6

====

System: fibrin- and LPS-induced microglia activation
Assay: cells
Assay type: cell-based, rat
Conditions: Table 3; screen at 10 μM
assayEndpoint: Quadrant (FIG. 5b)

Below are worked cases with known answers.
# molecule, Quadrant (FIG. 5b)
measured = [
    ("Cc1ccc(S(=O)(=O)NC(=O)NN2CCCCCC2)cc1 [Tolazamide, reference compound]", "Q3"),
    ("C[C@H]1[C@H](OC(=O)CCC(=O)O)O[C@@H]2O[C@@]3(C)CC[C@H]4[C@H](C)CC[C@@H]1[C@@]24OO3 [Artesunate, reference compound]", "Q3"),
    ("CC(=O)O[C@]1(C(C)=O)CC[C@H]2[C@@H]3C=C(C)C4=CC(=O)CC[C@]4(C)[C@H]3CC[C@@]21C [Megestrol acetate, reference compound]", "Q3"),
    ("COC(=O)Nc1nc2ccc(C(=O)c3ccccc3)cc2[nH]1 [Mebendazole, reference compound]", "Q2"),
]

Query: Specify reported Quadrant (FIG. 5b) for the molecule shown: O=C(NC(Cc1cc(=O)[nH]c2ccccc12)C(=O)O)c1ccc(Cl)cc1 (centres unmarked) [Rebamipide, reference compound]
Result: Q2

====

Field: Fibrin % cell toxicity. Provide a value for each of the compounds that follow.
Test system: primary rat microglia
Assay: Cell toxicity (dead cells, size <150 μm2) in coated fibrin (cFib) assay;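 also: share of dead cells sized under 150 µm2 at 10 µM in fibrin-stimulated microglia HTS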
Conditions: primary microglia HTS, fibrin assay, dead cells (size <150 μm2), compounds at 10 μM
Give bare numbers, in %.

# compound, targetDesc, unitSymbol, Fibrin % cell toxicity
measured = [
    ("O=C1c2cccc(O)c2C(=O)c2c(O)cccc21", "primary rat microglia", "%", 0),
]

Quick one: give me Fibrin % cell toxicity for each item below, same order please.
1. CCCCC(CC)COC(=O)CC(C(=O)OCC(CC)CCCC)S(=O)(=O)[O-].[Na+] (stereo not shown) [Docusate Sodium]
2. CC(=O)[C@H]1CC[C@H]2[C@@H]3CC[C@@H]4C[C@H](O)CC[C@]4(C)[C@H]3CC[C@]12C
3. N#CC(c1ccc(Cl)cc1)c1c(Cl)cc(-n2ncc(=O)[nH]c2=O)cc1Cl (stereo not shown)

Result:
0
1
1

====

System: fibrin-induced microglia activation
Assay: Image-based assay of fibrin-induced microglia activation (HTS and dose response)
Assay type: cell-based, rat
Settings: primary microglia HTS, fibrin stimulation, activation = cell size >800 μm2
assayEndpoint: Fibrin % inhibition (%)
Answers are plain numbers, in %.

Worked examples, 5 molecules total:
# molecule, unitSymbol, observedMeasurement
measured = [
    ("N[C@@H](CC(=O)O)C(=O)O", "%", 5),
    ("C[C@](N)(Cc1ccc(O)c(O)c1)C(=O)O", "%", 4),
    ("Br.COc1ccc2c3c1O[C@H]1C[C@@H](O)C=C[C@@]31CCN(C)C2 [Galanthamine Hydrobromide, Galantamine]", "%", 10),
    ("COc1ccc2c(c1OC)C(=O)O[C@@H]2[C@H]1c2cc3c(cc2CCN1C)OCO3 [Hydrastine (1r,9s)]", "%", "−27"),
    ("N=C(N)N/N=C/c1c(Cl)cccc1Cl [Guanabenz Acetate]", "%", "−46"),
]

Give measured Fibrin % inhibition for every item shown.
1. OC[C@@H](O)[C@@H](O[C@@H]1O[C@H](CO)[C@H](O)[C@H](O)[C@H]1O)[C@H](O)[C@@H](O)CO
2. C[C@@H]1O[C@@H]1P(=O)(O)O
3. COc1ccc(Cl)cc1C(=O)NCCc1ccc(S(=O)(=O)NC(=O)NC2CCCCC2)cc1 [Glibenclamide, Glyburide]

Result:
["−24", 4, "−23"]
